Values were extracted from patent US20140322307A1.

# PAR-2 activity (calcium fluorescence, human keratinocytes, peptide at 1 mg/mL) listing for each entry below
- TESTED_ON: T1, Proteinase-Activated Receptor-2 (human, on human keratinocytes) (human, UniProt P55085 37-397)
- T1 sequence (looked up): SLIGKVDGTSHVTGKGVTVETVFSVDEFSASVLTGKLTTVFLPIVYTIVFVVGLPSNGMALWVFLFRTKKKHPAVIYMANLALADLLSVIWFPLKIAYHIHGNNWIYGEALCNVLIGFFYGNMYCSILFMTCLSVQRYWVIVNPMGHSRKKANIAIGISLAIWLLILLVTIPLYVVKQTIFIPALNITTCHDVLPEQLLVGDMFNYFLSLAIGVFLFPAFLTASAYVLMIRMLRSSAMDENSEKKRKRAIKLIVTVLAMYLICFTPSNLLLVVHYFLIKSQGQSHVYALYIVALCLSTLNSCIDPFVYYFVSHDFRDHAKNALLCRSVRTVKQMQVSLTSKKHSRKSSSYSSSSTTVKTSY
- PROTOCOL_DETAILS: cell-based or functional assay

Ac-FMQFHS-NH2 [Ac-L-Phe-L-Met-L-Gln-L-Phe-L-His-L-Ser-NH2] : 77%

Item Ac-FMWDIS-NH2 [Ac-L-Phe-L-Met-L-Trp-L-Asp-L-Ile-L-Ser-NH2] : provide PAR-2 activity (calcium fluorescence, human keratinocytes, peptide at 1 mg/mL) 73.5%

Give the reported value of PAR-2 activity (calcium fluorescence, human keratinocytes, peptide at 1 mg/mL) for this record: Ac-FMRFIS-NH2 [Ac-L-Phe-L-Met-L-Arg-L-Phe-L-Ile-L-Ser-NH2] 64.9%

Give PAR-2 activity (calcium fluorescence, human keratinocytes, peptide at 1 mg/mL) for Ac-SFQFIS-NH2 [Ac-L-Ser-L-Phe-L-Gln-L-Phe-L-Ile-L-Ser-NH2] 61%

Provide PAR-2 activity (calcium fluorescence, human keratinocytes, peptide at 1 mg/mL) value for the following binder: Ac-SFRFIS-NH2 [Ac-L-Ser-L-Phe-L-Arg-L-Phe-L-Ile-L-Ser-NH2] 83.8%
